- TEST_NAME: Antagonist activity against muscarinic M3 receptor in guinea pig ileum assessed as effect on ileum tension
- Assay type: functional, Cavia porcellus
Give Condition met when the value for pKb is at least 7. Give Condition not met when it is less.

>>> print(df.to_string())
                                   molecule       answer_label
0  C[N+]1(C)CCC[C@@H]1[C@@H]1C[S+]([O-])[C@](c2ccccc2)(C2CCCCC2)O1.[I-] (stereo in doubt; (-)-13)      Condition met
1  C[N+]1(C)CCC[C@H]1[C@H]1C[S+]([O-])C(c2ccccc2)(c2ccccc2)O1.[I-] (stereo in doubt; (-)-11)      Condition met
2  C[N+]1(C)CCC[C@H]1[C@H]1C[S+]([O-])[C@](c2ccccc2)(C2CCCCC2)O1.[I-] (stereo in doubt; (-)-15)      Condition met
3  CN1CCC[C@@H]1[C@@H]1C[S+]([O-])[C@](c2ccccc2)(C2CCCCC2)O1 (stereo in doubt; (-)-7)      Condition met
4  CN1CCC[C@H]1[C@H]1C[S+]([O-])[C@@](c2ccccc2)(C2CCCCC2)O1 (stereo in doubt; (+)-6)  Condition not met
5  CN1CCC[C@H]1[C@H]1C[S+]([O-])C(c2ccccc2)(c2ccccc2)O1 (stereo in doubt; (+)-4)  Condition not met

----------
- TARGET_UNDER_TEST: Muscarinic acetylcholine receptor M5 (Homo sapiens)
- Sequence (P08912 whole entry): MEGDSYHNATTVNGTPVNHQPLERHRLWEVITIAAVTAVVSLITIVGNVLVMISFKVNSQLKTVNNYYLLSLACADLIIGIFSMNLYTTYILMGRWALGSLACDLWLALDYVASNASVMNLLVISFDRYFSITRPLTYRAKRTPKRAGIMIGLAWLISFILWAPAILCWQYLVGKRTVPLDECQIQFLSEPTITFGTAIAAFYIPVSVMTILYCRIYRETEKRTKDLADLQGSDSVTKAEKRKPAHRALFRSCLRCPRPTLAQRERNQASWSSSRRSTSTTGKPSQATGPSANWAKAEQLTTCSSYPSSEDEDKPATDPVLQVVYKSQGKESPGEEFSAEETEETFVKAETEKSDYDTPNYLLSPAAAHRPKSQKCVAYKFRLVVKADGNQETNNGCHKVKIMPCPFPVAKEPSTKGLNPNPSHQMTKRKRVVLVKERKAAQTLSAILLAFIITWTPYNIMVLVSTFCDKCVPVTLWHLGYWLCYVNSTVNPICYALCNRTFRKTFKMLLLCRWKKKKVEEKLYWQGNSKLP
One threshold, 200 nM, splits the recorded Ki values: lower ones are true (1), equal or higher ones are false (0).

                                    compound                         target_under_test  answer_label
 0  C[N+]1(C)CCC[C@@H]1[C@@H]1C[S+]([O-])[C@@](c2ccccc2)(C2CCCCC2)O1.[I-] (stereo in doubt; (+)-14)  Muscarinic acetylcholine receptor M5 (Homo sapiens)      true (1)
 1  CN1CCC[C@H]1[C@H]1C[S+]([O-])C(c2ccccc2)(c2ccccc2)O1 (stereo in doubt; (+)-4)  Muscarinic acetylcholine receptor M5 (Homo sapiens)     false (0)
 2  CN1CCC[C@@H]1[C@@H]1C[S+]([O-])[C@](c2ccccc2)(C2CCCCC2)O1 (stereo in doubt; (-)-7)  Muscarinic acetylcholine receptor M5 (Homo sapiens)      true (1)
 3  C[N+]1(C)CCC[C@H]1[C@H]1C[S+]([O-])[C@](c2ccccc2)(C2CCCCC2)O1.[I-] (stereo in doubt; (-)-15)  Muscarinic acetylcholine receptor M5 (Homo sapiens)      true (1)
 4  C[N+]1(C)CCC[C@H]1[C@H]1C[S+]([O-])[C@@](c2ccccc2)(C2CCCCC2)O1.[I-] (stereo in doubt; (+)-12)  Muscarinic acetylcholine receptor M5 (Homo sapiens)      true (1)
 5  C[N+]1(C)CCC[C@H]1[C@H]1C[S+]([O-])C(c2ccccc2)(c2ccccc2)O1.[I-] (stereo in doubt; (+)-10)  Muscarinic acetylcholine receptor M5 (Homo sapiens)      true (1)
 6  CN1CCC[C@H]1[C@H]1C[S+]([O-])[C@@](c2ccccc2)(C2CCCCC2)O1 (stereo in doubt; (+)-6)  Muscarinic acetylcholine receptor M5 (Homo sapiens)     false (0)
 7  CN1CCC[C@@H]1[C@@H]1C[S+]([O-])[C@@](c2ccccc2)(C2CCCCC2)O1 (stereo in doubt; (+)-8)  Muscarinic acetylcholine receptor M5 (Homo sapiens)      true (1)
 8  CN1CCC[C@@H]1[C@@H]1C[S+]([O-])[C@](c2ccccc2)(C2CCCCC2)O1 (stereo in doubt; (-)-6)  Muscarinic acetylcholine receptor M5 (Homo sapiens)     false (0)
 9  C[N+]1(C)CCC[C@@H]1[C@@H]1C[S+]([O-])C(c2ccccc2)(c2ccccc2)O1.[I-] (stereo in doubt; (-)-10)  Muscarinic acetylcholine receptor M5 (Homo sapiens)      true (1)
10  CN1CCC[C@H]1[C@H]1C[S+]([O-])C(c2ccccc2)(c2ccccc2)O1 (stereo in doubt; (-)-5)  Muscarinic acetylcholine receptor M5 (Homo sapiens)     false (0)
11  CN1CCC[C@@H]1[C@@H]1C[S+]([O-])C(c2ccccc2)(c2ccccc2)O1 (stereo in doubt; (-)-4)  Muscarinic acetylcholine receptor M5 (Homo sapiens)     false (0)

Origin of the recorded values: ChEMBL document CHEMBL1150330
